target: Glucagon-like peptide 1 receptor (Homo sapiens); experiment: Antagonist activity at human GLP-1R expressed in TREx293 cells co-expressing cAMP sensitive luciferase assessed as inhibition of GLP1 (7 to 36 residues) amide-induced cAMP accumulation after 90 mins by GloSensor cAMP assay relative to GLP-1; type: functional, cell-based
READOUT LABEL: Emin (%)

Cn1c2c(c(=O)n(C)c1=O)C(C(F)(F)F)(C(F)(F)F)N=C(c1cccc([N+](=O)[O-])c1)N2 :: 16.4
COc1cccc(C2=NC(C(F)(F)F)(C(F)(F)F)c3c(n(CC(C)C)c(=O)[nH]c3=O)N2)c1 :: 22.7
Cn1c2c(c(=O)n(C)c1=O)C(C(F)(F)F)(C(F)(F)F)NC(c1ccc(Cl)cc1)=N2 :: 20.9

A. COc1cccc(C2=NC(C(F)(F)F)(C(F)(F)F)c3c(n(-c4ccc(Cl)cc4)c(=O)[nH]c3=O)N2)c1
B. O=c1[nH]c(=O)n(Cc2ccccc2)c2c1C(C(F)(F)F)(C(F)(F)F)N=C(c1cccs1)N2
Given the two records A and B , choose the one whose Emin value is lower. # answer = label of selected item
A

====

molecular target: Glucagon-like peptide 1 receptor (Homo sapiens); assay: Antagonist activity at human GLP-1R expressed in TREx293 cells co-expressing cAMP sensitive luciferase assessed as inhibition of GLP1 (7 to 36 residues) amide-induced cAMP accumulation after 90 mins by GloSensor cAMP assay; assay type: functional, cell-based
pIC50: −log10 of the molar value.
READOUT LABEL: pIC50

Here's what some known entries look like.
Cn1c2c(c(=O)n(C)c1=O)C(C(F)(F)F)(C(F)(F)F)N=C(c1cccc([N+](=O)[O-])c1)N2 :: 6.21
COc1cccc(C2=NC(C(F)(F)F)(C(F)(F)F)c3c(n(CC(C)C)c(=O)[nH]c3=O)N2)c1 :: 5.14

a. COc1cccc(C2=NC(C(F)(F)F)(C(F)(F)F)c3c(n(-c4ccc(Cl)cc4)c(=O)[nH]c3=O)N2)c1
b. O=c1[nH]c(=O)n(Cc2ccccc2)c2c1C(C(F)(F)F)(C(F)(F)F)N=C(c1cccs1)N2
c. Cn1c2c(c(=O)n(C)c1=O)C(C(F)(F)F)(C(F)(F)F)NC(c1ccc(Cl)cc1)=N2
Sort ascending by pIC50. # format: label list in the order the request specifies
a, b, c
(a: 5.23, b: 5.89, c: 6.19)

====

target: Cytochrome P450 2C9 (Homo sapiens, UniProt P11712)
Sequence (P11712 whole entry): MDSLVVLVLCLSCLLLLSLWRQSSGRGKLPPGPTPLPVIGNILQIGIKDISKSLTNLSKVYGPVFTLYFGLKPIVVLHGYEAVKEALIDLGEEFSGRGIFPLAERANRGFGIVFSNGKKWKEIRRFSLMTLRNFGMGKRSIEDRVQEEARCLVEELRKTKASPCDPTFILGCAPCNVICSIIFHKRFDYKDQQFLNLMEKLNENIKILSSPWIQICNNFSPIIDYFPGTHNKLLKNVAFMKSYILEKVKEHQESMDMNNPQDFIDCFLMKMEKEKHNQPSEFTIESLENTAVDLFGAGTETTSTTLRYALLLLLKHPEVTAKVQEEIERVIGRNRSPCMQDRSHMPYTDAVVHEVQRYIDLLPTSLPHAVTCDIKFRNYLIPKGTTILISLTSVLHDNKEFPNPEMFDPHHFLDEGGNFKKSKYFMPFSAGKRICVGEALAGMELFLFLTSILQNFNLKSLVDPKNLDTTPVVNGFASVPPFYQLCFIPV
READOUT LABEL: pIC50
Note on pIC50: it is the negative log10 of concentration, concentration in mol/L.

Can you look up pIC50 on Cytochrome P450 2C9 (Homo sapiens, UniProt P11712) for COc1cccc(C2=NC(C(F)(F)F)(C(F)(F)F)c3c(n(-c4ccc(Cl)cc4)c(=O)[nH]c3=O)N2)c1 ?
5.42

====

target: Glucagon-like peptide 1 receptor (Homo sapiens, UniProt P43220); experiment: Antagonist activity at GLP-1R (unknown origin)
Sequence (P43220 whole entry, the tested form may be a part): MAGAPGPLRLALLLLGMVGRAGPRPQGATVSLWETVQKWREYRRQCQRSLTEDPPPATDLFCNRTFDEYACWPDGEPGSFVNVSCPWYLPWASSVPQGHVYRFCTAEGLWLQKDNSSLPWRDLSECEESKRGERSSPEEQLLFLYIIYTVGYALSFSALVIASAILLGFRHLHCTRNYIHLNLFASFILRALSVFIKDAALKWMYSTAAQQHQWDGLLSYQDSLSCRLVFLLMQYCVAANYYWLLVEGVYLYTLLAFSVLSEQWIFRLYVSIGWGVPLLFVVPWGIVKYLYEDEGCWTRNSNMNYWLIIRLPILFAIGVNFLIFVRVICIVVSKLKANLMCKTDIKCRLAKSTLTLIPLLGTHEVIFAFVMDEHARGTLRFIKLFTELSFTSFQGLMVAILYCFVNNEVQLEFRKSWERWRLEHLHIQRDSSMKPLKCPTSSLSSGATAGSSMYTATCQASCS
READOUT LABEL: IC50 (µM)
Give a bare numeral; the unit µM is implied.

State the recorded IC50 for this entry: COc1ccc2c(c1)N(c1ccccc1F)C(=O)[C@@]2(CCC(=O)O)NC(=O)c1cc2ccccc2cn1
21

====

experiment: Oral bioavailability in Sprague-Dawley rat at 3 mg/kg via gavage by LC-MS/MS analysis; assay type: ADME, organism-based; conditions: in vivo
READOUT LABEL: bioavailability (%)

A. Cn1c2c(c(=O)n(C)c1=O)C(C(F)(F)F)(C(F)(F)F)NC(c1ccc(Cl)cc1)=N2
B. COc1cccc(C2=NC(C(F)(F)F)(C(F)(F)F)c3c(n(-c4ccc(Cl)cc4)c(=O)[nH]c3=O)N2)c1
Given the two records A and B , choose the one whose bioavailability value is lower. # answer = label of selected item
A
(A: 50%, B: 100%)

====

biological target: Glucagon-like peptide 1 receptor (Homo sapiens); test: Antagonist activity at human GLP-1R expressed in TREx293 cells co-expressing cAMP sensitive luciferase assessed as inhibition of exendin-4-induced cAMP accumulation after 90 mins by GloSensor cAMP assay; type: functional, cell-based
READOUT LABEL: IC50 (nM)

Here's what some known entries look like.
COc1cccc(C2=NC(C(F)(F)F)(C(F)(F)F)c3c(n(CC(C)C)c(=O)[nH]c3=O)N2)c1 :: 7200
Cn1c2c(c(=O)n(C)c1=O)C(C(F)(F)F)(C(F)(F)F)N=C(c1cccc([N+](=O)[O-])c1)N2 :: 690

A. Cn1c2c(c(=O)n(C)c1=O)C(C(F)(F)F)(C(F)(F)F)NC(c1ccc(Cl)cc1)=N2
B. COc1cccc(C2=NC(C(F)(F)F)(C(F)(F)F)c3c(n(-c4ccc(Cl)cc4)c(=O)[nH]c3=O)N2)c1
C. O=c1[nH]c(=O)n(Cc2ccccc2)c2c1C(C(F)(F)F)(C(F)(F)F)N=C(c1cccs1)N2
Output the entries ranked by IC50 from maximum down to minimum. # format: label list in the order the request specifies
B, C, A

====

experiment: Volume of distribution at steady state in Sprague-Dawley rat at 1 mg/kg, iv or 3 mg/kg via oral gavage by LC-MS/MS analysis; format: ADME, organism-based; conditions: in vivo, read-out: Vdss
READOUT LABEL: Vd (L/kg)

a. COc1cccc(C2=NC(C(F)(F)F)(C(F)(F)F)c3c(n(-c4ccc(Cl)cc4)c(=O)[nH]c3=O)N2)c1
b. Cn1c2c(c(=O)n(C)c1=O)C(C(F)(F)F)(C(F)(F)F)NC(c1ccc(Cl)cc1)=N2
c. Cn1c2c(c(=O)n(C)c1=O)C(C(F)(F)F)(C(F)(F)F)N=C(c1cccc([N+](=O)[O-])c1)N2
Sort the items above on Vd, descending. # format: label list in the order the request specifies
b, a, c
(b: 3.57 L/kg, a: 0.69 L/kg, c: 0.22 L/kg)

====

// each record: one item and its IC50 for Cytochrome P450 2D6 (Homo sapiens, UniProt P10635)
READOUT LABEL: IC50 (µM)

I. Cn1c2c(c(=O)n(C)c1=O)C(C(F)(F)F)(C(F)(F)F)N=C(c1cccc([N+](=O)[O-])c1)N2
II. COc1cccc(C2=NC(C(F)(F)F)(C(F)(F)F)c3c(n(-c4ccc(Cl)cc4)c(=O)[nH]c3=O)N2)c1
Given the two records I and II , choose the one whose IC50 value is lower. # answer = label of selected item
II

====

target: Glucagon receptor (Homo sapiens, UniProt P47871)
Sequence (P47871 whole entry): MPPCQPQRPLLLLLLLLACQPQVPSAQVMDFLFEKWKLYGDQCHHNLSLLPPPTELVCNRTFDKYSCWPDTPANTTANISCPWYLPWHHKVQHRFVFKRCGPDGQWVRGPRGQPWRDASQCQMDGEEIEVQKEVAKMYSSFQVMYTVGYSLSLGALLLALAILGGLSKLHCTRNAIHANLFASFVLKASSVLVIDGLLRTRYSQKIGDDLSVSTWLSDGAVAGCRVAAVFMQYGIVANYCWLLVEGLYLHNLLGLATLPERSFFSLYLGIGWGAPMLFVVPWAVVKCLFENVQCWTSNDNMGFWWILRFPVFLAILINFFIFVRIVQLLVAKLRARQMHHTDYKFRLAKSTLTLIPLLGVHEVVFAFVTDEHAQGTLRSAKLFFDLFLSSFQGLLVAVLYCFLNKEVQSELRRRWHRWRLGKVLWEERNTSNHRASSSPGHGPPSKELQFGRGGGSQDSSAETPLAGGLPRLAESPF
READOUT LABEL: IC50

Cn1c2c(c(=O)n(C)c1=O)C(C(F)(F)F)(C(F)(F)F)N=C(c1cccc([N+](=O)[O-])c1)N2 :: > 30 µM

Kindly consider the entry below.
State the recorded IC50 for this entry: Cn1c2c(c(=O)n(C)c1=O)C(C(F)(F)F)(C(F)(F)F)NC(c1ccc(Cl)cc1)=N2
> 30 µM

====

assay: Drug uptake in Sprague-Dawley rat brain at 3 mg/kg via oral gavage after 1 hr by LC-MS/MS analysis; type: ADME, organism-based; settings: read-out: Drug uptake
READOUT LABEL: concentration at 1 h (ng/g)

Cn1c2c(c(=O)n(C)c1=O)C(C(F)(F)F)(C(F)(F)F)N=C(c1cccc([N+](=O)[O-])c1)N2 :: 2.4

I. Cn1c2c(c(=O)n(C)c1=O)C(C(F)(F)F)(C(F)(F)F)NC(c1ccc(Cl)cc1)=N2
II. COc1cccc(C2=NC(C(F)(F)F)(C(F)(F)F)c3c(n(-c4ccc(Cl)cc4)c(=O)[nH]c3=O)N2)c1
I'd appreciate it if you could identify which of I and II has the greater concentration at 1 h. # answer = label of selected item
I

====

biological target: Glucagon-like peptide 1 receptor (Homo sapiens); test: Antagonist activity at human GLP-1R expressed in TREx293 cells co-expressing cAMP sensitive luciferase assessed as inhibition of exendin-4-induced cAMP accumulation after 90 mins by GloSensor cAMP assay relative to GLP-1; assay type: functional, cell-based
READOUT LABEL: Emin (%)

Cn1c2c(c(=O)n(C)c1=O)C(C(F)(F)F)(C(F)(F)F)NC(c1ccc(Cl)cc1)=N2 :: 19.7
O=c1[nH]c(=O)n(Cc2ccccc2)c2c1C(C(F)(F)F)(C(F)(F)F)N=C(c1cccs1)N2 :: 32
COc1cccc(C2=NC(C(F)(F)F)(C(F)(F)F)c3c(n(-c4ccc(Cl)cc4)c(=O)[nH]c3=O)N2)c1 :: 23.9

P. COc1cccc(C2=NC(C(F)(F)F)(C(F)(F)F)c3c(n(CC(C)C)c(=O)[nH]c3=O)N2)c1
Q. Cn1c2c(c(=O)n(C)c1=O)C(C(F)(F)F)(C(F)(F)F)N=C(c1cccc([N+](=O)[O-])c1)N2
I'd appreciate it if you could identify which of P and Q has the greater Emin. # answer = label of selected item
P
(P: 26.4%, Q: 15.5%)
